ASSAY TARGET: Cyclooxygenase (Homo sapiens) (UniProt P35354+P23219)
PROTOCOL SUMMARY: In vitro inhibitory activity against Prostaglandin G/H synthase in human platelets
Design: concentration or dose not given beside the values
ASSAY CONDITIONS: concentration not given here
MEASURED PARAMETER: inhibition (%)

CC1(C)C(=O)N(c2cccc(Cl)c2)c2ncccc21    0

[1] CC1(C)C(=O)N(c2ccc(F)cc2)c2ncccc21
[2] CC(C)(C(=O)[O-])c1cccnc1Nc1ccc(Cl)cc1.[Na+]
[3] CC1(C)C(=O)N(c2ccc(Cl)cc2)c2ncccc21
Reorder the items by inhibition, least to greatest. // format: requested-order list of labels
1, 2, 3

* * *

System: Rattus norvegicus
PROTOCOL SUMMARY: In vivo inhibitory activity against cells in reverse passive Arthus reaction (RPAR) assay at dose 25 mg/kg in the pleural cavity of rats.
Format: functional
Measured inhibition in vivo at 25 mg/kg by item
State the answer as a number, implicitly in %.

CN1C(=O)C(C)(C)c2cccnc21    69

Summary for this molecule, CCC1(C)C(=O)N(c2ccccc2)c2ncccc21 (centres undefined) : inhibition in vivo at 25 mg/kg is 36

Sample COc1ccc(N2C(=O)C(C)(C)c3cccnc32)cc1 ; inhibition in vivo at 25 mg/kg observed: 63

# inhibition in vivo at 25 mg/kg of CC1(F)C(=O)N(c2ccccc2)c2ncccc21 (centres undefined) = 50

Numbers sourced from ChEMBL document CHEMBL1125117.
